Data provenance: patent US11008403

measurementTarget: human TfR ECD (human)
Sequence (chain, as listed by the source): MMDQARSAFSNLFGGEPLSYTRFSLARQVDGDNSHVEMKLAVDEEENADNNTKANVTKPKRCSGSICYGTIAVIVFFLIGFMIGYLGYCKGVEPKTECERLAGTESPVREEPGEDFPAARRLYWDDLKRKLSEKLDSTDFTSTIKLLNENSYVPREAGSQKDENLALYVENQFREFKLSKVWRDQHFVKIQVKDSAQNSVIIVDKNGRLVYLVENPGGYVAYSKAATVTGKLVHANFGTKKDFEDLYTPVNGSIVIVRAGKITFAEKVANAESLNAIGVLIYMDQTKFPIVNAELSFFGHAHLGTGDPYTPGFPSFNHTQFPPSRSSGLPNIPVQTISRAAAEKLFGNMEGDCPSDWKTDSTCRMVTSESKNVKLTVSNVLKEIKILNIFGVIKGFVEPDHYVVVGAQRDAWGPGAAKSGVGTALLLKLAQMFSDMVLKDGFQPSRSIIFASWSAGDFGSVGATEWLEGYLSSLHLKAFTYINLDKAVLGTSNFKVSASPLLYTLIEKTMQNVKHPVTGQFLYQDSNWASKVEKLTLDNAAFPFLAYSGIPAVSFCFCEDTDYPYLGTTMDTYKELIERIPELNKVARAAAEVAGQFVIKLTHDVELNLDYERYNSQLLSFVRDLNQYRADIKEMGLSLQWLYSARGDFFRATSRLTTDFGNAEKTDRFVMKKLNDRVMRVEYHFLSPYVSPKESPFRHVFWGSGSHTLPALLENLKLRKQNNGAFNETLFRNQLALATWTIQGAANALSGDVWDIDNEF
measurementProtocol: ELISA
Catalogue of binders with associated EC50

| binder | unitsOfMeasure | EC50 |
| --- | --- | --- |
| hu15G11.v5 HC I51A (antibody, V domains shown) VH: EVQLVQSGAEVKKPGASVKVSCKASGYTFTSYWMHWVRQAPGQRLEWIGEANPTNGRTNYIEKFKSRATLTVDKSASTAYMELSSLRSEDTAVYYCARGTRAYHYWGQGTMVTVSS VL: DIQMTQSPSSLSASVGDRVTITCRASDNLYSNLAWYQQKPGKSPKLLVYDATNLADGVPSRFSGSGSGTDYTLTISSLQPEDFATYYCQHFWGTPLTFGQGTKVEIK | ng/mL | 0.2 |
| hu15G11.v5 LC S31A (antibody, V domains shown) VH: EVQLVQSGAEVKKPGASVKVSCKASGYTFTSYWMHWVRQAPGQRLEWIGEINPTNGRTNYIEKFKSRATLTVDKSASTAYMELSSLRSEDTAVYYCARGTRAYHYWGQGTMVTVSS VL: DIQMTQSPSSLSASVGDRVTITCRASDNLYANLAWYQQKPGKSPKLLVYDATNLADGVPSRFSGSGSGTDYTLTISSLQPEDFATYYCQHFWGTPLTFGQGTKVEIK | ng/mL | 0.3 |
